# studySystem: ABL1 (Homo sapiens)
# Sequence (P00519 242-493 limits assumed): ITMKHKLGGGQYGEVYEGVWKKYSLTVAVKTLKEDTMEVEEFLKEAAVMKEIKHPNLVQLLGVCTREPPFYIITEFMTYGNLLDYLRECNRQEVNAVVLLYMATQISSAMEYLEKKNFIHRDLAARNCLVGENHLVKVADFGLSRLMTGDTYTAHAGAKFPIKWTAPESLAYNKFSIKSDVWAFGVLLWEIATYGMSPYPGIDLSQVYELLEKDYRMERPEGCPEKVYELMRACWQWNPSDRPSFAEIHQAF
pKd: −log10 of the molar value.
testReadout: pKd

# molecularString, studySystem, pKd
data = [
    ("COc1ccc(-c2cc3c(N[C@@H](C)c4ccccc4)ncnc3n2C(C)C)cc1", "ABL1 (Homo sapiens)", "5.00 to 6.00"),
]

Recorded pKd for COc1cccc(-c2cc3c(Nc4cccc(O)c4)ncnc3[nH]2)c1 with ABL1 (Homo sapiens), please? 6.00 to 7.00

---

So I've got Kd readings for FLT3 (Homo sapiens, UniProt P36888), take a look.

# molecularString, studySystem, Kd
data = [
    ("Cc1cc(C)cc(Nc2ncnc3[nH]c(-c4ccc(Br)cc4)cc23)c1", "FLT3 (Homo sapiens, UniProt P36888)", "> 10 µM"),
]

Please look at the following compound next.
Recorded Kd for COc1cccc(-c2cc3c(NCc4cccc(C)c4)ncnc3[nH]2)c1 with FLT3 (Homo sapiens, UniProt P36888), please? > 10 µM

---

So I've got Kd readings for PDGFR-β (Homo sapiens, UniProt P09619), take a look.

# molecularString, studySystem, Kd
records = [
    ("COc1ccc(-c2cc3c(N[C@H](C)c4ccccc4)nc(N[C@@H](C)c4ccccc4)nc3[nH]2)cc1", "PDGFR-β (Homo sapiens, UniProt P09619)", "100 to 1000 nM"),
    ("Cn1c(-c2ccc(O)cc2)cc2c(Nc3ccccc3Cl)ncnc21", "PDGFR-β (Homo sapiens, UniProt P09619)", "100 to 1000 nM"),
]

Please look at the following compound next.
What value of Kd has been recorded for this entry: COc1ccc(-c2cc3c(Nc4cccc(O)c4)ncnc3[nH]2)cc1 > 10000 nM

---

So I've got Kd readings for PDGFR-β (Homo sapiens, UniProt P09619), take a look.

Use these answered entries as a reference point.
# molecularString, testValue
rows = [
    ("CCc1ccccc1Nc1ncnc2c1cc(-c1ccc(O)cc1)n2C", "100 to 1000 nM"),
    ("C[C@@H](Nc1ncnc2c1cc(-c1ccc(O)cc1)n2C)c1ccccc1", "100 to 1000 nM"),
]

What value of Kd has been recorded for this entry: COc1ccc(-c2cc3c(NCCc4ccccc4)ncnc3[nH]2)cc1 1000 to 10000 nM
